Test system: K-562 leukemia
Protocol description: NCI-60 one-dose screen, 48 h (100 = growth as untreated, 0 = no growth, -100 = all killed)
Run parameters: 10 µM unless noted
Compounds without any hit were thinned out: in the full panel of roughly 83,000, 20% have a hit.
Endpoint: growth (%)

[
  {
    "Compound": "CS(=O)(=O)c1ccc(-c2nn(-c3ccccc3)cc2/C=N/NC(=O)c2ccncc2)cc1",
    "Endpoint": "growth",
    "Measured result": 62.5
  },
  {
    "Compound": "CCn1c2ccc(/C=N/OCCCN(C)C)cc2c2cc(/C=N/OCCCN(C)C)ccc21",
    "Endpoint": "growth",
    "Measured result": -17.5
  },
  {
    "Compound": "CCN1C(=O)N(CC)C2SC(N/N=C/C=C/c3ccccc3OC)=NC21 (stereo not given)",
    "Endpoint": "growth",
    "Measured result": 18.3
  },
  {
    "Compound": "COc1cc(/C=N/Nc2ccnc3cc(Cl)ccc23)cc(OC)c1O",
    "Endpoint": "growth",
    "Measured result": -54.8
  },
  {
    "Compound": "Cc1ccc(-c2cc(-c3ccc(N(C)C)cc3)n3c(n2)nc2ccccc23)cc1",
    "Endpoint": "growth",
    "Measured result": 29.2
  }
]

---

Test system: NCI-H322M lung
Protocol description: NCI-60 one-dose screen, 48 h (100 = growth as untreated, 0 = no growth, -100 = all killed)
Run parameters: 10 µM unless noted
Protocol: Growth inhibition of the NCI-H322M human Non-Small Cell Lung tumor cell line is measured as a screen for anti-cancer activity. Cells are grown in 96 well plates and exposed to the test compound for 48 hours. Compounds are tested at a single concentration, which is 10^-5 M for most compounds. The reported endpoint is percent growth (GI% or GIPRCNT), where numbers from 0 - 100% represent growth inhibition, and numbers from -100% - 0 represent cell death. […]
Compounds without any hit were thinned out: in the full panel of roughly 83,000, 20% have a hit. Calls of active or inactive are those of the source. How the source made its calls: active means growth percent below 10; inactive means the rest.
Endpoint: growth

[
  {
    "Molecule": "Cc1nn(-c2ccccc2)c2nc(CCl)[nH]c(=O)c12",
    "Measured result": "103% (inactive)"
  },
  {
    "Molecule": "NC(=S)N/N=C(/C=C/c1cn(-c2ccccc2)nc1-c1ccc(Cl)cc1)c1cc2ccccc2oc1=O",
    "Measured result": "60% (inactive)"
  },
  {
    "Molecule": "COc1cc(/C=N/n2cnc3oc(-c4ccccc4)cc3c2=N)cc(CN2CCN(C)CC2)c1O",
    "Measured result": "108% (inactive)"
  },
  {
    "Molecule": "O=C1Nc2ccc(Cl)cc2/C1=C/c1ccc(OCc2ccc(F)cc2)cc1",
    "Measured result": "95.7% (inactive)"
  },
  {
    "Molecule": "Cc1cc(-c2ccc3nc(N)sc3c2)nc2ccc3[nH]ncc3c12",
    "Measured result": "67.1% (inactive)"
  },
  {
    "Molecule": "CC(c1ccccc1)N1C(=O)/C(=C/c2csc(C#N)n2)SC1=S (centres undefined)",
    "Measured result": "99.8% (inactive)"
  },
  {
    "Molecule": "NS(=O)(=O)c1ccc(Nc2nc(N/N=C/c3ccc(F)cc3)nc(Nc3ccccc3)n2)cc1",
    "Measured result": "58.1% (inactive)"
  },
  {
    "Molecule": "O=C1[C@@H]2Cc3c([nH]c4ccccc34)[C@H](c3c(Cl)cccc3Cl)N2C(=O)CN1C1CCN(Cc2ccccc2)CC1",
    "Measured result": "77.7% (inactive)"
  },
  {
    "Molecule": "O=C(/C=C1\\C=CN(CCCCO)c2ccccc21)n1ccc2ccccc21",
    "Measured result": "102% (inactive)"
  },
  {
    "Molecule": "Cc1ccccc1NC1CC(=O)N(c2ccc(Cl)cc2Cl)C1=O (centres undefined)",
    "Measured result": "99% (inactive)"
  },
  {
    "Molecule": "CN(c1ccc(Cl)cc1)S(=O)(=O)c1ccc(-c2cnc(C3CC3)o2)cc1",
    "Measured result": "55% (inactive)"
  },
  {
    "Molecule": "Cc1nc(-c2cc3ccccc3c(N3CCN(C)CC3)n2)cs1",
    "Measured result": "106% (inactive)"
  },
  {
    "Molecule": "CS(=O)(=O)c1nccc(-c2c(-c3ccc(F)c(OCCc4ccccc4)c3)nc3sccn23)n1",
    "Measured result": "-26.9% (active)"
  },
  {
    "Molecule": "COc1ccc(/C(C)=C(\\c2ccc(Cl)cc2)c2ccc(OCCN)cc2)cc1",
    "Measured result": "79.3% (inactive)"
  },
  {
    "Molecule": "Cc1ccc(NC(=O)c2ccc(CN3CCN(C)CC3)c(C(F)(F)F)c2)cc1Oc1ccc(-c2[nH]nc3ncnc(N)c23)cc1",
    "Measured result": "96.2% (inactive)"
  },
  {
    "Molecule": "Nc1nc(-c2cccc([N+](=O)[O-])c2)c(N=Nc2ccccc2[N+](=O)[O-])s1",
    "Measured result": "76.7% (inactive)"
  },
  {
    "Molecule": "COc1ccc(OC)c([C@H]2c3[nH]c4ccccc4c3C[C@H]3C(=O)N(CCCCCCC(=O)NO)CC(=O)N23)c1",
    "Measured result": "93.3% (inactive)"
  },
  {
    "Molecule": "Nc1nc(N)c2c(n1)NC(c1ccccc1)CC(c1ccc(Nc3nc(NCCO)nc(Nc4ccc(Cl)cc4)n3)cc1)=N2 (centres undefined)",
    "Measured result": "63.2% (inactive)"
  },
  {
    "Molecule": "COc1ccc(-c2cc(-c3cccc4ccccc34)n3c(n2)nc2ccccc23)cc1",
    "Measured result": "73.5% (inactive)"
  }
]

These measurements were taken from PubChem BioAssay (NCI).
